Test system: SF-539 CNS
PROTOCOL TEXT: NCI tumour cell line growth inhibition, 48 h
QUANTITY: TGI (µM)

1) Oc1ccc([I+]c2ccccc2)cc1O: 91.2
2) Cc1cc2c3c(nc4ccccc42)C(=O)c2ccccc2-c3n1: 61.2
3) O=C(/C=C\c1ccc(Cl)c(Cl)c1)c1ccc(Cl)cc1Cl: 37.7
4) CCN1CCN(c2nc(C)cc(N(CCNc3ccnc4cc(Cl)ccc34)Cc3ccc4c(c3)OCO4)n2)CC1: 3.18
5) Cc1cccc2c1CC1(C2)Cc2c(C)cccc2C1=O (configuration not stated): 57.1
6) Cn1c2ccccc2c2cc(-c3ccccc3)c3c(c21)C(=O)c1ccccc1C3=O: 49.2
7) COc1ccc(-c2nnc(COc3ccc(NC(=O)Nc4cc(C(F)(F)F)cc(C(F)(F)F)c4)cc3F)o2)cc1: 5.28
8) COc1ccc2c(c1)/C(=C\c1c(Cl)nc3sc(C)cn13)C(=O)N2: 6.76
9) Cc1cc(/C=C/c2ccc3cc(N(C)C)ccc3[n+]2C)c(C)n1-c1ccccc1: 2.47

Ref: PubChem BioAssay (NCI)
